System: SK-HEP1
Experiment: Antiproliferative activity against human SK-HEP1 cells treated for 72 hrs by MTT assay
Assay type: functional, cell-based
Conditions: SK-HEP1, 72 h
PARAMETER_MEASURED: IC50 (µM)
Enter your answer as a number in µM; do not include the unit.

// IC50 lookup, key: CCOc1ccc2[nH]c3c(c2c1)CCN1C(=O)c2cc(F)cc(F)c2N(c2cccc(F)c2)C31 (configuration not stated)
1.34

// IC50 lookup, key: COc1ccc2[nH]c3c(c2c1)CCN1C(=O)c2cc(F)ccc2N(c2ccc(C)c(F)c2)C31 (configuration not stated)
6.96

// IC50 lookup, key: COc1ccc2[nH]c3c(c2c1)CCN1C(=O)c2cc(F)ccc2N(c2ccc(Cl)c(F)c2)C31 (configuration not stated)
8.9

// IC50 lookup, key: O=C1c2cc(F)cc(F)c2N(c2cccc(F)c2)C2c3[nH]c4ccccc4c3CCN12 (configuration not stated)
0.27

// IC50 lookup, key: COc1ccc2[nH]c3c(c2c1)CCN1C(=O)c2cc(F)ccc2N(c2cc(F)cc(Cl)c2)C31 (configuration not stated)
5.01

// IC50 lookup, key: CNC(=O)c1cc(Oc2ccc(NC(=O)Nc3ccc(Cl)c(C(F)(F)F)c3)cc2)ccn1
1.98

* * *

Target: DNA topoisomerase 2-alpha (Homo sapiens) (UniProt P11388)
Sequence (P11388 whole entry): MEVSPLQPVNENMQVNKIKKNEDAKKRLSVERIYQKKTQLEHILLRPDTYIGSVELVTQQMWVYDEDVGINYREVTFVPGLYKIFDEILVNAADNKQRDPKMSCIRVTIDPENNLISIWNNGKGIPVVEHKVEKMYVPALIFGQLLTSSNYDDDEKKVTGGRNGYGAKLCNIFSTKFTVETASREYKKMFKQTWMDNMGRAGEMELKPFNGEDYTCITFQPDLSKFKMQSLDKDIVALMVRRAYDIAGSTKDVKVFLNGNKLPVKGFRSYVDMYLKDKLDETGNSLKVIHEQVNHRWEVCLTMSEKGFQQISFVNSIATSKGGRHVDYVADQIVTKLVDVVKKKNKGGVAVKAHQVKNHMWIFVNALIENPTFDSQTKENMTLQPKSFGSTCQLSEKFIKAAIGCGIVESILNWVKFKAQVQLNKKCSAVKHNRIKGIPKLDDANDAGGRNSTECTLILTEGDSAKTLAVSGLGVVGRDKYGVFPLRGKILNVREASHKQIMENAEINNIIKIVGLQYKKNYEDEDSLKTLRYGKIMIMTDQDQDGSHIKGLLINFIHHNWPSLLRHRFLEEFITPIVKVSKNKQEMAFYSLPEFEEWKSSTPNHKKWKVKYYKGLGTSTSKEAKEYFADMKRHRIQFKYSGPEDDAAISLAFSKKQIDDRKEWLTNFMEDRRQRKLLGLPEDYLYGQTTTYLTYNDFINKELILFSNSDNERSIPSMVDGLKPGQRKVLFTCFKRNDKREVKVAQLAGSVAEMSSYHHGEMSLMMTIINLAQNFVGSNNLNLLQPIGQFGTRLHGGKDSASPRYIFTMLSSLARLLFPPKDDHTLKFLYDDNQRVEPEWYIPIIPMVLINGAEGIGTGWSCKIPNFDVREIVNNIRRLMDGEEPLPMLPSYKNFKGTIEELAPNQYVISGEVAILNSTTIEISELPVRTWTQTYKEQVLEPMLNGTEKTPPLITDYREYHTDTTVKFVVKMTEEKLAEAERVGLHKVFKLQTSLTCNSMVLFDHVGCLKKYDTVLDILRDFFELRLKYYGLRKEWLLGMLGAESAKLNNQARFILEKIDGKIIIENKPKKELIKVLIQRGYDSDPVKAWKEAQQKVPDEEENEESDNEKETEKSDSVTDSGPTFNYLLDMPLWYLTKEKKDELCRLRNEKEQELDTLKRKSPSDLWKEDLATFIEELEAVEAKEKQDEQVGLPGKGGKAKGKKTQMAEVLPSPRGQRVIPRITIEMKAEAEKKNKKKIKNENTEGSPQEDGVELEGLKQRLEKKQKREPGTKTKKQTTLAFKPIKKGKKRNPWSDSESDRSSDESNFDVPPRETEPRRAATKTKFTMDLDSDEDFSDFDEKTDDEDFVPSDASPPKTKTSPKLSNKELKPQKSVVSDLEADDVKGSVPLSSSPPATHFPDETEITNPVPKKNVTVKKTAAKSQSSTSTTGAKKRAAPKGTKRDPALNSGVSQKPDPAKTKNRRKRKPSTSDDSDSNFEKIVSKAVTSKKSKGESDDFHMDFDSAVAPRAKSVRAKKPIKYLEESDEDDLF
Test: Inhibition of human Top2-alpha expressed in baculovirus assessed as inhibition of relaxation of supercoiled pBR322 plasmid DNA at 100 uM incubated for 30 mins in presence of ATP by ethidium bromide staining based agarose gel electrophoresis analysis relative to control
PARAMETER_MEASURED: inhibition
Answer with the value and then the unit.

Can you look up inhibition on DNA topoisomerase 2-alpha (Homo sapiens) (UniProt P11388) for COc1ccc2[nH]c3c(c2c1)CCN1C(=O)c2cc(F)cc(F)c2N(c2cccc(F)c2)C31 (centres undefined) ?
65.2%

Can you look up inhibition on DNA topoisomerase 2-alpha (Homo sapiens) (UniProt P11388) for Cc1ccc2[nH]c3c(c2c1)CCN1C(=O)c2cc(F)cc(F)c2N(c2cccc(F)c2)C31 (centres undefined) ?
67.6%

Can you look up inhibition on DNA topoisomerase 2-alpha (Homo sapiens) (UniProt P11388) for CC(=O)Oc1ccc2[nH]c3c(c2c1)CCN1C(=O)c2cc(F)cc(F)c2N(c2cccc(F)c2)C31 (centres undefined) ?
63.7%

Can you look up inhibition on DNA topoisomerase 2-alpha (Homo sapiens) (UniProt P11388) for CN1c2ccccc2C(=O)N2CCc3c([nH]c4ccccc34)C21 (centres undefined) ?
48%

Can you look up inhibition on DNA topoisomerase 2-alpha (Homo sapiens) (UniProt P11388) for O=C1c2cc(F)cc(F)c2N(c2cccc(F)c2)C2c3[nH]c4ccc(Cl)cc4c3CCN12 (centres undefined) ?
65.2%

Can you look up inhibition on DNA topoisomerase 2-alpha (Homo sapiens) (UniProt P11388) for O=C1c2cc(F)cc(F)c2N(c2cccc(F)c2)C2c3[nH]c4ccc(O)cc4c3CCN12 (centres undefined) ?
67%

Can you look up inhibition on DNA topoisomerase 2-alpha (Homo sapiens) (UniProt P11388) for O=C1c2cc(F)cc(F)c2N(c2cccc(F)c2)C2c3[nH]c4ccccc4c3CCN12 (centres undefined) ?
52.6%

Can you look up inhibition on DNA topoisomerase 2-alpha (Homo sapiens) (UniProt P11388) for CC[C@@]1(O)C(=O)OCc2c1cc1n(c2=O)Cc2cc3ccccc3nc2-1 ?
70.2%

Can you look up inhibition on DNA topoisomerase 2-alpha (Homo sapiens) (UniProt P11388) for CCOc1ccc2[nH]c3c(c2c1)CCN1C(=O)c2cc(F)cc(F)c2N(c2cccc(F)c2)C31 (centres undefined) ?
48.3%

These entries and their values trace back to ChEMBL document CHEMBL5154935.
